Source listed as the supplement of paper PMC9112550.

System: Escherichia coli TOP10;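 also: peptides expressed intracellularly from a pBAD plasmid library in pooled LB shake-flask culture, induced with 0.3% L-arabinose, DNA abundance read by NGS, three biological replicates, DESeq2 with apeglm shrinkage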
Assay: shrunken log2 fold change of peptide-encoding DNA abundance (4.5 h post-induction vs induction); higher = less antimicrobial activity (less host growth inhibition)
Conditions: time post-induction: 4.5 h; library: site-saturation at positions 5, 18, 19, 20
Everything with shrunken log2 fold change lower than -0.1 is N; everything else, including exactly -0.1, is Y.

Qu. Say whether RRIRDRPPRLPRPRPRPKWKPRP shows shrunken log2 fold change of -0.1 or more.
Ans. Y

Qu. Say whether RRIRFRPPRLPRPRPRPESEPRP shows shrunken log2 fold change of -0.1 or more.
Ans. Y

Qu. Say whether RRIRARPPRLPRPRPRPYYIPRP shows shrunken log2 fold change of -0.1 or more.
Ans. N

Qu. Say whether RRIRMRPPRLPRPRPRPKAAPRP shows shrunken log2 fold change of -0.1 or more.
Ans. Y

Qu. Say whether RRIRDRPPRLPRPRPRPLRCPRP shows shrunken log2 fold change of -0.1 or more.
Ans. Y

Qu. Say whether RRIRFRPPRLPRPRPRPGVRPRP shows shrunken log2 fold change of -0.1 or more.
Ans. N

Qu. Say whether RRIRSRPPRLPRPRPRPPNGPRP shows shrunken log2 fold change of -0.1 or more.
Ans. Y

Qu. Say whether RRIRIRPPRLPRPRPRPKWTPRP shows shrunken log2 fold change of -0.1 or more.
Ans. N

Qu. Say whether RRIRARPPRLPRPRPRPRGWPRP shows shrunken log2 fold change of -0.1 or more.
Ans. Y

Qu. Say whether RRIRHRPPRLPRPRPRPEVRPRP shows shrunken log2 fold change of -0.1 or more.
Ans. Y

Qu. Say whether RRIRDRPPRLPRPRPRPKNPPRP shows shrunken log2 fold change of -0.1 or more.
Ans. N

Qu. Say whether RRIRNRPPRLPRPRPRPCMTPRP shows shrunken log2 fold change of -0.1 or more.
Ans. Y

Qu. Say whether RRIRHRPPRLPRPRPRPYNSPRP shows shrunken log2 fold change of -0.1 or more.
Ans. Y

Qu. Say whether RRIRVRPPRLPRPRPRPMVRPRP shows shrunken log2 fold change of -0.1 or more.
Ans. Y

Qu. Say whether RRIRARPPRLPRPRPRPYCFPRP shows shrunken log2 fold change of -0.1 or more.
Ans. N
